test.name: ATG_XTT_Cytotoxicity: Cytotoxicity Assessment in the Attagene TRANS-FACTORIAL HepG2 Assay (AID 2283584)
Inconclusive results are not listed. The source made the active and inactive calls. Rule for the calls: active = hit-call score of the fitted dose curve at least 0.9, where 1 is the maximum; inconclusive = response in the unintended direction; inactive = score below 0.9.
Respond with a class label; see yes for active, no for inactive

Use the examples below as a reference point.
INSERT INTO assay_data (compound, assigned_class) VALUES
  ('CCc1ccc(C=O)cc1', 'no'),
  ('COc1cc(C)cc(O)c1', 'no');

What was the test verdict on CCCCC/C=C/C=C/C=O ?
no

Status in this test for CCCCCCCCCCCCOCCO ?
no

What did the test return for CCN(CC)CCOC(=O)c1ccc(N)cc1 ?
no

Entry CCCC1CCC(=O)O1 (stereo not given) : call = ?
no

I would be grateful if you could indicate the recorded call for COC(C(=O)O)c1ccccc1 (stereo not given) .
no

Tell me the assay call for CC[C@]12CCCN3CCc4c(n(c5ccccc45)[C@@](O)(C(=O)OC)C1)[C@@H]32 please.
no

What outcome does the record of this test show for O=C(O)C[C@H](O)C[C@H](O)/C=C/c1c(C2CC2)nc2ccccc2c1-c1ccc(F)cc1 ?
no

Test call for this compound, please: C=CC(=O)NCOCC(C)C
no

Dear colleague, could you share the recorded outcome for O=c1[nH]nnc2ccccc12 when you have a moment?
no

Give the logged outcome of this assay for the following compound: Clc1ccc2c(c1)C(N1CCNCC1)=Nc1ccccc1O2
yes

Outcome logged for CC(=O)OCCC(C)CC(C)(C)C (stereo not given) in this assay:
no

# outcome recorded in this test, key = CCCCCCCCCCCCCCCC(=O)O
no

For CCCCCC=CCC(=O)OC , which call appears in the assay record?
no

====

test.name: ATG_CMV_CIS: Attagene CIS-FACTORIAL HepG2 Assay for human CMV (Internal Marker) (AID 2282928);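 note: endpoint acts as a background internal control marker rather than a target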
experimental.context: HepG2 CMV promoter reporter, transcription factor profiling; actives raise or lower the signal
Activity calls are given as the source filed them. Rule for the calls: active = hit-call score of the fitted dose curve at least 0.9, where 1 is the maximum; inactive = score below 0.9.
Pick one and only one: active, inactive

Assay outcome for C=C(C)C(=O)O[C@H]1C[C@@H]2CC[C@@]1(C)C2(C)C : what was it?
active

So what was the verdict on CC(=O)c1c(C)cc(C(C)(C)C)cc1C in this test?
inactive

For CCCCC(CC)COC(=O)/C=C\C(=O)OCC(CC)CCCC (configuration not stated) , which call appears in the assay record?
inactive

====

Read-out: Plasminogen activator inhibitor-1 (PAI1), SERPINE1 (gene 5054)
test.name: BSK_hDFCGF_PAI1: BioMAP Diversity Plus: hDFCGF Assay for Plasminogen activator inhibitor-1 (PAI1) Biomarker Activity (AID 2283066)
experimental.context: primary human foreskin fibroblasts; actives raise or lower the signal
Calls of active or inactive are those of the source. Rule for the calls: active = hit-call score of the fitted dose curve at least 0.9, where 1 is the maximum; inactive = score below 0.9.
Give your call using only these classes: 1 (yes) = active, 0 (no) = inactive

Please review the following examples before continuing.
INSERT INTO measurements (compound, assigned_class) VALUES
  ('O=[N+]([O-])c1cc(C(F)(F)F)ccc1Cl', '0 (no)'),
  ('CCCCCCCCCCCCCCCCCC(=O)OCC(CC)CCCC (stereo not drawn)', '0 (no)'),
  ('C=C[Si](OCC)(OCC)OCC', '0 (no)'),
  ('CC(=O)OCCC(C)CC(C)(C)C (stereo not drawn)', '0 (no)'),
  ('c1ccc2c(c1)c1cccc3ccc4cccc2c4c31', '0 (no)');

Which outcome did this test record for the compound Cc1ccc(O)c(C(C)(C)C)c1 ?
1 (yes)
